molecular target: hAChE (Homo sapiens, UniProt P22303)
Sequence (P22303 32-614): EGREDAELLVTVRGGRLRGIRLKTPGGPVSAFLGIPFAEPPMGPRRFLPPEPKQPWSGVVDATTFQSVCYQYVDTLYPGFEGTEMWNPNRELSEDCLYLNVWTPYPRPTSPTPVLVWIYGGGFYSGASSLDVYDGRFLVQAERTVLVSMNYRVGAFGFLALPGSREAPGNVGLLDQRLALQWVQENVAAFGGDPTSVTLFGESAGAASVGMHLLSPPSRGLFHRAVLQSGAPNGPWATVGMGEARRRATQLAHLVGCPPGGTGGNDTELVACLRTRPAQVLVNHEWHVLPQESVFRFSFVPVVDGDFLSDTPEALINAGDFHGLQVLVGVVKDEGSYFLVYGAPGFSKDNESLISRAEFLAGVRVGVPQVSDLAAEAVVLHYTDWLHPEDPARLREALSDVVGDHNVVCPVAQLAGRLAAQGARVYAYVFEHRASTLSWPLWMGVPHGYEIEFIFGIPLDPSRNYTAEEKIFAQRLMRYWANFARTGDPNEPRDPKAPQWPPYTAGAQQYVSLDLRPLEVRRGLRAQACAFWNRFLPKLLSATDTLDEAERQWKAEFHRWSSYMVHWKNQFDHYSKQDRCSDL

>  <molecule>
CCN(Cc1ccccc1)Cc1ccc(/C=C2\Cc3cc(OC)ccc3C2=O)cc1 [Compound E-1h]

>  <Ki>
100 nM

$$$$

----------
biological target: hAChE (Homo sapiens, UniProt P22303); construct: purchased Sigma Aldrich (Milan, Italy); assay: biochemical; assay type: biochemical; conditions: human AChE; mean ± SD of three independent measurements; read-out: AChE IC50
pIC50: −log10 of the molar value.
Assign 1 to entries whose pIC50 meets or exceeds 7; assign 0 to the rest.

>  <cpd.smiles>
COc1ccc2c(c1)CC(=Cc1ccc(CN(C)C)cc1)C2=O

>  <category.label>
0

$$$$
>  <cpd.smiles>
CCCCN(CCCC)Cc1ccc(/C=C2\Cc3cc(OC)ccc3C2=O)cc1

>  <category.label>
0

$$$$
>  <cpd.smiles>
CCN(Cc1ccccc1)Cc1ccc(C=C2Cc3cc(OC)ccc3C2=O)cc1

>  <category.label>
1

$$$$
>  <cpd.smiles>
COc1ccc2c(c1)C/C(=C\c1ccc(CN(C(C)C)C(C)C)cc1)C2=O

>  <category.label>
0

$$$$
>  <cpd.smiles>
CCN(Cc1ccccc1)Cc1ccc(/C=C2\Cc3cc(OC)ccc3C2=O)cc1

>  <category.label>
1

$$$$
>  <cpd.smiles>
COc1ccc2c(c1)CC(=Cc1ccc(CN(C(C)C)C(C)C)cc1)C2=O

>  <category.label>
0

$$$$

----------
molecular target: BChE from human serum (Homo sapiens, UniProt P06276); construct: BChE from human serum; assay: biochemical; details: mean ± SD of three independent measurements
Sequence (P06276 29-602): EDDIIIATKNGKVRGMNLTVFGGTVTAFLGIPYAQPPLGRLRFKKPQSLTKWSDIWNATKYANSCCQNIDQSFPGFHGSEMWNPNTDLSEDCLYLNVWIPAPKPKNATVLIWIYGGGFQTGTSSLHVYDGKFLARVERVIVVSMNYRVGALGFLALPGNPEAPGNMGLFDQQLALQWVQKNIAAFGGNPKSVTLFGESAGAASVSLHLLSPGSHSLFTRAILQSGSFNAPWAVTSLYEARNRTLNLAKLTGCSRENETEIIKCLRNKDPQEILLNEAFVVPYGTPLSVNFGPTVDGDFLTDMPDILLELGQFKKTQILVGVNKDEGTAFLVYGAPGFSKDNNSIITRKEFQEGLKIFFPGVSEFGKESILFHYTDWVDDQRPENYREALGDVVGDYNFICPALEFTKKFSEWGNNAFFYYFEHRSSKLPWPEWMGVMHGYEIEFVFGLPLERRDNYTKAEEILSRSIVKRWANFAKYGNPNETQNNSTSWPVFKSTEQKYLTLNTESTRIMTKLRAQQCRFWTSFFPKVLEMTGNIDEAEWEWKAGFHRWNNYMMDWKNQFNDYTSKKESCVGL
pIC50: −log10 of the molar value.
endpoint: pIC50

>  <cpd.smiles>
COc1ccc2c(c1)C/C(=C\c1ccc(CN(C(C)C)C(C)C)cc1)C2=O

>  <endpoint>
pIC50

>  <measured.value>
5.00

$$$$
>  <cpd.smiles>
CCN(CC)Cc1ccc(/C=C2\Cc3cc(OC)ccc3C2=O)cc1

>  <endpoint>
pIC50

>  <measured.value>
5.00

$$$$
>  <cpd.smiles>
CCCCN(C)Cc1ccc(/C=C2\Cc3cc(OC)ccc3C2=O)cc1

>  <endpoint>
pIC50

>  <measured.value>
5.30

$$$$
>  <cpd.smiles>
COc1ccc2c(c1)C/C(=C\c1ccc(CN(C)Cc3ccccc3)cc1)C2=O

>  <endpoint>
pIC50

>  <measured.value>
5.00

$$$$
>  <cpd.smiles>
CCN(Cc1ccccc1)Cc1ccc(/C=C2\Cc3cc(OC)ccc3C2=O)cc1

>  <endpoint>
pIC50

>  <measured.value>
5.15

$$$$
>  <cpd.smiles>
CCN(Cc1ccccc1)Cc1ccc(C=C2Cc3cc(OC)ccc3C2=O)cc1

>  <endpoint>
pIC50

>  <measured.value>
5.00

$$$$

----------
biological target: hAChE (Homo sapiens); construct: purchased Sigma Aldrich (Milan, Italy); assay: biochemical; format: biochemical; conditions: human AChE; mean ± SD of three independent measurements; read-out: AChE IC50
pIC50: −log10 of the molar value.
endpoint: pIC50

>  <compound>
CCCCN(C)Cc1ccc(C=C2Cc3cc(OC)ccc3C2=O)cc1 [E/Z-1e]

>  <endpoint>
pIC50

>  <measured.value>
5.87

$$$$
>  <compound>
CCCN(CCC)Cc1ccc(C=C2Cc3cc(OC)ccc3C2=O)cc1 [E/Z-1c]

>  <endpoint>
pIC50

>  <measured.value>
6.53

$$$$
>  <compound>
CCCN(CCC)Cc1ccc(/C=C2\Cc3cc(OC)ccc3C2=O)cc1 [Compound E-1c]

>  <endpoint>
pIC50

>  <measured.value>
6.76

$$$$
>  <compound>
COc1ccc2c(c1)C/C(=C\c1ccc(CN(C)Cc3ccccc3)cc1)C2=O [Compound E-1g]

>  <endpoint>
pIC50

>  <measured.value>
6.94

$$$$
>  <compound>
CCCCN(CCCC)Cc1ccc(C=C2Cc3cc(OC)ccc3C2=O)cc1 [E/Z-1d]

>  <endpoint>
pIC50

>  <measured.value>
5.64

$$$$

----------
molecular target: hAChE (Homo sapiens); construct: purchased Sigma Aldrich (Milan, Italy); assay: biochemical; format: biochemical
Form field: IC50 (one value per entry).

>  <molecule>
CCN(CC)Cc1ccc(/C=C2\Cc3cc(OC)ccc3C2=O)cc1 [Compound E-1a]

>  <IC50 [nM]>
105

$$$$
>  <molecule>
CCN(CC)Cc1ccc(C=C2Cc3cc(OC)ccc3C2=O)cc1 (mixture of isomers) [E/Z-1a]

>  <IC50 [nM]>
780

$$$$

----------
IC50 reference
Molecular target: human recombinant MAO B (Homo sapiens, UniProt P27338)
Sequence (P27338 1-520): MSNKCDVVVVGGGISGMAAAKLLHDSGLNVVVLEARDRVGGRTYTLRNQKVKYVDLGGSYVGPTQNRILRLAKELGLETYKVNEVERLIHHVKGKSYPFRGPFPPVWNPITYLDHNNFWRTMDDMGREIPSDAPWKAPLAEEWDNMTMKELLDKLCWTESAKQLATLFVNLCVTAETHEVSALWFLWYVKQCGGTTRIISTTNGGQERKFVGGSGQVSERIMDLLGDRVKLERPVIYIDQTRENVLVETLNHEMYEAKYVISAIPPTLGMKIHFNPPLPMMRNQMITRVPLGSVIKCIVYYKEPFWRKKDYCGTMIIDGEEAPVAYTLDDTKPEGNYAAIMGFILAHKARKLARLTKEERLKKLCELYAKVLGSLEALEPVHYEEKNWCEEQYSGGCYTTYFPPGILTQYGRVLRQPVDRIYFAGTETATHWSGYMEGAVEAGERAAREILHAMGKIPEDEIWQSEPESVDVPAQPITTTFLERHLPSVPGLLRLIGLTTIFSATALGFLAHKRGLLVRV
Experiment: biochemical
Conditions: mean ± SD of three independent measurements

>  <compound>
CCN(Cc1ccccc1)Cc1ccc(C=C2Cc3cc(OC)ccc3C2=O)cc1

>  <IC50>
358 nM

$$$$
>  <compound>
CCCCN(C)Cc1ccc(C=C2Cc3cc(OC)ccc3C2=O)cc1

>  <IC50>
651 nM

$$$$
>  <compound>
CCCN(CCC)Cc1ccc(/C=C2\Cc3cc(OC)ccc3C2=O)cc1

>  <IC50>
479 nM

$$$$
>  <compound>
COc1ccc2c(c1)C/C(=C\c1ccc(CN(C)Cc3ccccc3)cc1)C2=O

>  <IC50>
292 nM

$$$$
>  <compound>
COc1ccc2c(c1)CC(=Cc1ccc(CN(C)Cc3ccccc3)cc1)C2=O

>  <IC50>
354 nM

$$$$
>  <compound>
CCCCN(C)Cc1ccc(/C=C2\Cc3cc(OC)ccc3C2=O)cc1

>  <IC50>
178 nM

$$$$
>  <compound>
CCCN(CCC)Cc1ccc(C=C2Cc3cc(OC)ccc3C2=O)cc1

>  <IC50>
743 nM

$$$$
>  <compound>
CCN(Cc1ccccc1)Cc1ccc(/C=C2\Cc3cc(OC)ccc3C2=O)cc1

>  <IC50>
355 nM

$$$$
>  <compound>
COc1ccc2c(c1)C/C(=C\c1ccc(CN(C)C)cc1)C2=O

>  <IC50>
686 nM

$$$$
>  <compound>
CCN(CC)Cc1ccc(C=C2Cc3cc(OC)ccc3C2=O)cc1 (mixture of isomers)

>  <IC50>
1590 nM

$$$$
>  <compound>
CCCCN(CCCC)Cc1ccc(/C=C2\Cc3cc(OC)ccc3C2=O)cc1

>  <IC50>
338 nM

$$$$
>  <compound>
COc1ccc2c(c1)CC(=Cc1ccc(CN(C(C)C)C(C)C)cc1)C2=O

>  <IC50>
241 nM

$$$$
>  <compound>
COc1ccc2c(c1)CC(=Cc1ccc(CN(C)C)cc1)C2=O

>  <IC50>
839 nM

$$$$
>  <compound>
CCN(CC)Cc1ccc(/C=C2\Cc3cc(OC)ccc3C2=O)cc1

>  <IC50>
260 nM

$$$$
>  <compound>
CCCCN(CCCC)Cc1ccc(C=C2Cc3cc(OC)ccc3C2=O)cc1

>  <IC50>
382 nM

$$$$

----------
target: human recombinant MAO-A (Homo sapiens); construct: purchased Sigma Aldrich (Milan, Italy); host or cells: baculovirus-infected insect cells; test: biochemical; conditions: read-out: MAO-A % inhibition at 10 μM; human MAO-A; 10 μM; values in parentheses
Sequence (P21397 whole entry): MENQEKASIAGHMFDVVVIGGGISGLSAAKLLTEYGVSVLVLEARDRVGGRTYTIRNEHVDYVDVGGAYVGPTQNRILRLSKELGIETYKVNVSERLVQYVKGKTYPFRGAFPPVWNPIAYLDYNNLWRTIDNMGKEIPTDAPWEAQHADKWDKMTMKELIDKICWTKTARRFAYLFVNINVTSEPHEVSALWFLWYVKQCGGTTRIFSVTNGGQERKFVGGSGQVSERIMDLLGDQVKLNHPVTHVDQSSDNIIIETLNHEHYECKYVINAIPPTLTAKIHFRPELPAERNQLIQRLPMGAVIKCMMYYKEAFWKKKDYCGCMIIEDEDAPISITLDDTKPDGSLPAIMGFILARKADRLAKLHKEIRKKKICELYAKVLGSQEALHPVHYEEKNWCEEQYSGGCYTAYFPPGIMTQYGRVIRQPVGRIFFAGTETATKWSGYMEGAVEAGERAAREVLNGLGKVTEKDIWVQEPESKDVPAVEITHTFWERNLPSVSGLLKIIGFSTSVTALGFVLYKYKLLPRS
Threshold rule: inhibition at 10 µM greater than or equal to 40% is Criterion met; below that, Criterion not met.

>  <molecule>
CCCCN(CCCC)Cc1ccc(/C=C2\Cc3cc(OC)ccc3C2=O)cc1

>  <category.label>
Criterion not met

$$$$
>  <molecule>
CCN(CC)Cc1ccc(C=C2Cc3cc(OC)ccc3C2=O)cc1 (mixture of isomers)

>  <category.label>
Criterion met

$$$$
>  <molecule>
CCCN(CCC)Cc1ccc(/C=C2\Cc3cc(OC)ccc3C2=O)cc1

>  <category.label>
Criterion not met

$$$$
>  <molecule>
COc1ccc2c(c1)CC(=Cc1ccc(CN(C)Cc3ccccc3)cc1)C2=O

>  <category.label>
Criterion met

$$$$
